Target: UniProt Q15761
Sequence (Q15761 whole entry): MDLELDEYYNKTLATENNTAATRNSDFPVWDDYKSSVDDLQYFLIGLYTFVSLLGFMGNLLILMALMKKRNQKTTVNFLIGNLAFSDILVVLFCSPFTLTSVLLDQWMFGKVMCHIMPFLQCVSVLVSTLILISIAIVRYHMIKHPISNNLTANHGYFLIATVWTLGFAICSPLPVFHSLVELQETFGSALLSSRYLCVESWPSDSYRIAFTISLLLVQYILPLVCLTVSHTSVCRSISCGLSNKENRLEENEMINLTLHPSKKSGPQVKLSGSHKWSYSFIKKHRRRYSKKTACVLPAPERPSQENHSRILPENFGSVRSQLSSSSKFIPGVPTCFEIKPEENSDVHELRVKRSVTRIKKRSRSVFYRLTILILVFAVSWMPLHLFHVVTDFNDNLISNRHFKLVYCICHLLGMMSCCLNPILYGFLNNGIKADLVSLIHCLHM
Measurement protocol: Inhibitory concentration of total specific binding of [125I]- -PYY to HEK 293 cells transfected with Human NPY-Y5 cDNA (compound prepared by manual synthesis technique)
Type: cell-based, HEK293
Assay readout: IC50 (nM)

I. CCCCCCCCCCNC(=O)C1CCN(C(=O)Cn2c(=O)sc3ccc(Cl)cc32)CC1
II. NS(=O)(=O)c1ccc(CCNC(=O)C2CCN(C(=O)Cn3c(=O)sc4ccc(Cl)cc43)CC2)cc1
III. O=C(c1ccccc1)c1cccc(NC(=O)C2CCN(C(=O)Cn3c(=O)sc4ccc(Cl)cc43)CC2)c1
IV. O=C(Nc1cccc2ccccc12)C1CCN(C(=O)Cn2c(=O)sc3ccc(Cl)cc32)CC1
V. COc1ccc(NC(=O)C2CCN(C(=O)Cn3c(=O)sc4ccc(Cl)cc43)CC2)cn1
Problem: # descending IC50 order for the listed compounds Your reply should list the labels following the order given in the request.
Solution: IV, II, V, I, III

P. O=C(Nc1ccc(Oc2ccccc2)cc1)C1CCN(C(=O)Cn2c(=O)sc3ccc(Cl)cc32)CC1
Q. O=C(Nc1ccc(F)c(C(F)(F)F)c1)C1CCN(C(=O)Cn2c(=O)sc3ccc(Cl)cc32)CC1
R. COc1ccc(CNC(=O)C2CCN(C(=O)Cn3c(=O)sc4ccc(Cl)cc43)CC2)cc1
S. Cc1cc(O)ccc1NC(=O)C1CCN(C(=O)Cn2c(=O)sc3ccc(Cl)cc32)CC1
Problem: Arrange the 4 entries by IC50 so the values rise. Present the labels in the sequence the task asks for.
Solution: Q, P, R, S
